tgt: PARP2 (Homo sapiens (Human), UniProt Q9UGN5)
Sequence (Q9UGN5 whole entry): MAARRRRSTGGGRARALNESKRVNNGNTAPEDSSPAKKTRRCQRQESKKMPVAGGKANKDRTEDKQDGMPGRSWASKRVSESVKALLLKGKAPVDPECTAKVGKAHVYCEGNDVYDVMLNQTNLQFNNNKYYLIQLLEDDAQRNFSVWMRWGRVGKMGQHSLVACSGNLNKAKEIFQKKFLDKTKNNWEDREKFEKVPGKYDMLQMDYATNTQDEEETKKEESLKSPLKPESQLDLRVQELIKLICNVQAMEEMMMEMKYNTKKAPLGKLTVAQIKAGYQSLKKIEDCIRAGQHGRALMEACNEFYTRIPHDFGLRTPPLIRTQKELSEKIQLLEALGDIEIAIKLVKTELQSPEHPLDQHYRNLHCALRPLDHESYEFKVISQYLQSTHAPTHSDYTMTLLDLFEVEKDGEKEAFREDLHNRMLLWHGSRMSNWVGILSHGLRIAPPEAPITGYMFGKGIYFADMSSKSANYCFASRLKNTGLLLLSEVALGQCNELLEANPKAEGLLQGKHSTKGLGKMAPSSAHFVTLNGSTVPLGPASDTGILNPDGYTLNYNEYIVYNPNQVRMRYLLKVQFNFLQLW
testDescription: Biochemical fluorescent polarization (FP) assay, displacement of PARPi-FL
Type: binding
assayConditions: 20 nM protein, 3 nM PARPi-FL, 4 h at room temperature; read-out: IC50 FP PARP2
measurementLabel: IC50

CCc1cc2ncc(CN3CC(Oc4ccc(C#N)nc4)C3)cc2[nH]c1=O : 17 µM

[ask] What does the record list as IC50 for CCc1cc2ncc(CN3CC[C@@H](Oc4ccc(C(=O)NC5CC5)nc4)C3)cc2[nH]c1=O ?
[reply] 11 µM

[ask] Form field: reported IC50 of CCc1cc2ncc(CN3CC[C@@H](Oc4ccc(C(=O)NC5COC5)nc4)C3)cc2[nH]c1=O
[reply] 33 µM

[ask] Give the measured IC50 of CCc1cc2ncc(CN3CC(Nc4ccc(C(=O)NC)nc4)C3)cc2[nH]c1=O .
[reply] 14 µM

[ask] Sample Cc1cc2ncc([C@@H](C)N3C[C@H](Oc4ccc(C#N)nc4)[C@H]3C)cc2[nH]c1=O (single isomer, unassigned) — what was its IC50?
[reply] > 100 µM

[ask] Which IC50 value is on record for C[C@@H]1[C@@H](Oc2ccc(C(=O)NC3CC3)nc2)CN1Cc1cnc2cc(Cl)c(=O)[nH]c2c1 ?
[reply] 8.7 µM

[ask] For CCc1cc2ncc(CN3CC(Oc4ccc(C#N)cc4)C3)cc2[nH]c1=O , what is its reported IC50?
[reply] 16 µM

[ask] # get_value(readout='IC50', item= CCc1nc2cc(F)c(CN3CC[C@@H](Oc4ccc(C(=O)NC)nc4)C3)cc2[nH]c1=O )
[reply] > 100 µM

[ask] Which IC50 is reported for this compound? CCc1cc2ncc([C@H](C)N3C[C@H](Oc4ccc(C(=O)NC)nc4)[C@H]3C)cc2[nH]c1=O (single isomer, unassigned)
[reply] > 100 µM

[ask] Name the recorded IC50 for CCc1cn2nc(CN3C[C@H](Oc4ccc(C(=O)NC)nc4)[C@H]3C)cc2[nH]c1=O .
[reply] > 100 µM

[ask] Can you share its IC50? I mean this compound: Cc1cc2ncc(CN3C[C@H](Oc4ccc(C#N)nc4)[C@H]3C)cc2[nH]c1=O
[reply] > 100 µM

====

Tested on: MDA-MB-436 (mutated BRCA1) cells
testDescription: Cell growth inhibition assay (CellTiter-Glo cell viability, 7 days)
Assay type: cell-based
assayConditions: Homo sapiens, 168 h, MDA-MB-436, 7 days
Overview of reported pEC50 across a group of molecules:
Bear in mind: pEC50 is minus log10 of a mol/L concentration; give just that figure.

Please review the following examples before continuing.
CCc1nc2ccc(CN3CC(Oc4ccc(C(=O)NC5CC5)nc4)C3)c(F)c2[nH]c1=O : 7.89
Cc1cc2c(=O)[nH]c3c(F)c(CN4C[C@H](Oc5ccc(C(=O)NC6CC6)nc5)[C@H]4C)ccc3n2n1 : 8.44
CCc1cc2ncc(CN3CC[C@@H](Oc4cnc(C(=O)NC)c(F)c4)C3)cc2[nH]c1=O : 7.74

[ask] Can you look up the measured pEC50 of CCc1nc2ccc(CN3C[C@H](Oc4ccc(C(=O)NC5CC5)nc4)[C@H]3C)c(F)c2[nH]c1=O for me?
[reply] 8.49

====

Tested on: MDA-MB-436 (mutated BRCA1) cells
testDescription: Cell growth inhibition assay (CellTiter-Glo cell viability, 7 days)
Assay type: cell-based
assayConditions: Homo sapiens, 168 h, MDA-MB-436, 7 days
measurementLabel: EC50 (nM)
Number in nM, nothing else.

In the examples that follow, each entry is paired with its recorded EC50.
Cc1cc2ncc(CN3CC(Oc4ccc(C(=O)NC5CC5)nc4)C3)cc2[nH]c1=O : 6.8
CNC(=O)c1ccc(O[C@@H]2CCN(Cc3cnc4c(c3)[nH]c(=O)c3ccoc34)C2)cn1 : 32
CCc1cc2ncc(CN3C[C@H](Oc4ccc(C(=O)NC)nc4)[C@H]3C)cc2[nH]c1=O : 0.79
CNC(=O)c1ncc(O[C@@H]2CCN(Cc3cnc4cc(C5CC5)c(=O)[nH]c4c3)C2)cc1F : 41
CCc1cc2ncc(CN3C[C@H](Oc4ccc(C(=O)NC)nc4)C[C@H]3C)cc2[nH]c1=O : 31
Cc1cc2ncc(CN3C[C@H](Oc4ccc(C(=O)NC5(C)CC5)nc4)[C@H]3C)cc2[nH]c1=O : 2.6
CCc1cc2ncc(CN3C[C@H](Oc4ccc(F)cc4C#N)[C@H]3C)cc2[nH]c1=O : 91
CCNC(=O)c1ccc(OC2CN(Cc3cnc4cc(C)c(=O)[nH]c4c3)C2)cn1 : 12

[ask] Give its EC50 value. Item: CCc1cc2ncc(CN3C[C@H](n4ccc5nc(C(=O)NC)ccc54)[C@H]3C)cc2[nH]c1=O
[reply] 3.6

[ask] Can you look up the measured EC50 of CCc1cc2ncc(CN3C[C@H](Oc4ccc(F)cc4)[C@H]3C)cc2[nH]c1=O for me?
[reply] 7.9
